Kindly state activation at 13 µM for each of the entries shown.
- Assayed system: HPV-16-E6 (recombinant GST-E6 protein) (Human papillomavirus type 16)
- Construct: The full length HPV16 E6 gene was amplified via polymerase chain reaction and cloned in the vector pGeX4T2; made in house; host or cells: E. coli strain AB1899
- Sequence (P03126 whole entry): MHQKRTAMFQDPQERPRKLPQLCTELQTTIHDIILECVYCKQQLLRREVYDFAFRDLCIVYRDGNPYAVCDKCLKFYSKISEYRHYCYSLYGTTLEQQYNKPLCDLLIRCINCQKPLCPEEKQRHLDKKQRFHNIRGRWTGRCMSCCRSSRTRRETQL
- Procedure text: biochemical
- Type: biochemical
- Condition notes: read-out: TSQ % (% values of Zinc release)
Quick reminder: number only, in %, skip the unit.

Query string: Which activation at 13 µM value is on record for CCOC(=O)N1CCN(SSN2CCN(C(=O)OCC)CC2)CC1 ?
Result string: 36.8

Query string: Item: CCOC(=O)CN(Cc1ccccc1)SSN(CC(=O)OCC)Cc1ccccc1
Result string: 22

Query string: Item: CC1(C)COCN1SSN1COCC1(C)C
Result string: 28.4

Query string: Item: CCN(CC)SSN(CC)CC
Result string: 57

Query string: Item: CC1CN(SSN2CC(C)OC(C)C2)CC(C)O1 (stereo not shown)
Result string: 40.3

Query string: Item: COc1ccc(N2CCN(SSN3CCN(c4ccc(OC)cc4)CC3)CC2)cc1
Result string: 0

Query string: Item: C1CN(SSN2CCSCC2)CCS1
Result string: 41.8
